Collected Ki values appear next to each entry.
System: induction of TAT by dexamethasone in HepG2 cells
Assay: HepG2 tyrosine aminotransferase (TAT) assay
Assay type: cell-based, human
Conditions: HepG2 cells, challenge of 100 nM dexamethasone; Ki from IC50 by Cheng and Prusoff equation

Worked cases, answers included:
Cc1cc(S(=O)(=O)N2CCC3=Cc4c(cnn4-c4ccc(F)cc4)C[C@]3(C(=O)c3ncc(C)s3)C2)n(C)n1 [Example 12U]	20 to 100 nM
Cc1cccc(S(=O)(=O)N2CCC3=Cc4c(cnn4-c4ccc(F)cc4)C[C@]3(C(=O)c3nccn3C)C2)c1 [Example 13A]	20 to 100 nM
O=C(c1nccs1)[C@]12Cc3cnn(-c4ccc(F)cc4)c3C=C1CCN(S(=O)(=O)c1ccc(F)cc1)C2	20 to 100 nM
O=C(c1ccccn1)[C@]12Cc3cnn(-c4ccc(F)cc4)c3C=C1CCN(S(=O)(=O)c1cccc(OC(F)(F)F)c1)C2 [Example 11I]	< 20 nM
Cc1cccc(S(=O)(=O)N2CCC3=Cc4c(cnn4-c4ccc(F)cc4)C[C@]3(C(=O)c3ncccn3)C2)c1	20 to 100 nM
Cc1ccnc(C(=O)[C@]23Cc4cnn(-c5ccc(F)cc5)c4C=C2CCN(S(=O)(=O)c2ccnn2C)C3)c1 [Example 11AJ]	< 20 nM
Cc1ccc(C(=O)[C@]23Cc4cnn(-c5ccc(F)cc5)c4C=C2CCN(S(=O)(=O)c2cccc(C)c2)C3)nc1 [Example 12F]	< 20 nM
CCn1cc(S(=O)(=O)N2CCC3=Cc4c(cnn4-c4ccc(F)cc4)C[C@]3(C(=O)c3cc(C)ccn3)C2)cn1 [Example 11AH]	< 20 nM
CCCn1ncc(S(=O)(=O)N2CCC3=Cc4c(cnn4-c4ccc(F)cc4)C[C@]3(C(=O)c3cscn3)C2)n1 [Example 11CQ]	< 20 nM
Cc1cccc(S(=O)(=O)N2CCC3=Cc4c(cnn4-c4ccc(F)cc4)C[C@]3(C(=O)c3ncco3)C2)c1	20 to 100 nM

Incoming: I'd like to know its Ki. The molecule in question is Cc1ncc(S(=O)(=O)N2CCC3=Cc4c(cnn4-c4ccc(F)cc4)C[C@]3(C(=O)c3cc(C(F)(F)F)ccn3)C2)n1C [Example 11BW]
Outgoing: 20 to 100 nM

Incoming: Ki for Cc1cnc(C(=O)[C@]23Cc4cnn(-c5ccc(F)cc5)c4C=C2CCN(S(=O)(=O)c2cccc(C(F)(F)F)c2)C3)s1 [Example 12L] ?
Outgoing: < 20 nM

Incoming: # get_value(readout='Ki', item= Cn1ccnc1S(=O)(=O)N1CCC2=Cc3c(cnn3-c3ccc(F)cc3)C[C@]2(C(=O)c2cc(C(F)(F)F)ccn2)C1 [Example 11BX] )
Outgoing: < 20 nM

Incoming: Ki lookup needed for Cc1cccc(S(=O)(=O)N2CCC3=Cc4c(cnn4-c4ccc(F)cc4)C[C@]3(C(=O)c3cccc(C)n3)C2)c1 [Example 12H] , thanks.
Outgoing: < 20 nM

====

Molecular target: human recombinant GR (Homo sapiens, UniProt P04150)
Construct: purchased PanVera P2812
Sequence (P04150 whole entry): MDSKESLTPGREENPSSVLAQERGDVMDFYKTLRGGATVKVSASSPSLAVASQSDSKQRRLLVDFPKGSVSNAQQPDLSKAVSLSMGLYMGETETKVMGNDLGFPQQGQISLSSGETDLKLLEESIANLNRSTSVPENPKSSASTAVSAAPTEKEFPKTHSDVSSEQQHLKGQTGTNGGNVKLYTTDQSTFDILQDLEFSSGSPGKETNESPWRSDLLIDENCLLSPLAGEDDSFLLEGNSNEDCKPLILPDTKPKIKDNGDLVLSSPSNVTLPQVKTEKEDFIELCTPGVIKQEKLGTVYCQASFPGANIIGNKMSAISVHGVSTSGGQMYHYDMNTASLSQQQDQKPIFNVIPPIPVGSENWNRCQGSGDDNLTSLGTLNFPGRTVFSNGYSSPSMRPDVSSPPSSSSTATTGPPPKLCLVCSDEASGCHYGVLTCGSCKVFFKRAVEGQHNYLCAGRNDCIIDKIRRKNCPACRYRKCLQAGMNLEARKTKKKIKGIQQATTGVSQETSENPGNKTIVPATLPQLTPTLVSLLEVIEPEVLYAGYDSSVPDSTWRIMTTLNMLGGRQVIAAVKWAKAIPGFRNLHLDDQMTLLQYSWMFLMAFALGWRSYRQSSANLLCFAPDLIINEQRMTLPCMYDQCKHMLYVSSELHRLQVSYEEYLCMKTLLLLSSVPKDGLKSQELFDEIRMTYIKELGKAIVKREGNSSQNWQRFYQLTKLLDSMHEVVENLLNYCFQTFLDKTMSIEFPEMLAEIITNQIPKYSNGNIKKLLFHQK
Assay: Human glucocorticoid receptor (GR) fluorescence polarisation (FP) binding assay
Conditions: human recombinant GR, fluorescence polarisation binding assay; read-out: GR binding
parameter_measured: Ki

Completed entries (count: 5):
O=C(c1nccs1)[C@]12Cc3cnn(-c4ccc(F)cc4)c3C=C1CCN(S(=O)(=O)c1ccc(F)c(F)c1)C2 [Example 12P]	< 0.5 nM
O=C(c1nccs1)[C@]12Cc3cnn(-c4ccc(F)cc4)c3C=C1CCN(S(=O)(=O)CC1CCCO1)C2 (mixture of isomers) [Example 2B]	0.5 to 1 nM
CCn1cc(S(=O)(=O)N2CCC3=Cc4c(cnn4-c4ccc(F)cc4)C[C@]3(C(=O)c3ccccn3)C2)nn1 [Example 11CJ]	< 0.5 nM
CCCn1cc(S(=O)(=O)N2CCC3=Cc4c(cnn4-c4ccc(F)cc4)C[C@]3(C(=O)c3ccccn3)C2)cn1 [Example 11CA]	< 0.5 nM
Cc1ccnc(C(=O)[C@]23Cc4cnn(-c5ccc(F)cc5)c4C=C2CCN(S(=O)(=O)c2ccc4c(c2)CCO4)C3)c1 [Example 11AN]	< 0.5 nM

Incoming: Would you mind telling me what Ki value was observed for O=C(c1nccs1)[C@]12Cc3cnn(-c4ccc(F)cc4)c3C=C1CCN(S(=O)(=O)c1cccc(Cl)c1)C2 [Example 12E] ?
Outgoing: < 0.5 nM

Incoming: # lookup: Ki of Cc1cccc(S(=O)(=O)N2CCC3=Cc4c(cnn4-c4ccc(F)cc4)C[C@]3(C(=O)c3cc(C)ccn3)C2)c1 [Example 12G]
Outgoing: < 0.5 nM

Incoming: Fill in: Ki of CCn1ncc(S(=O)(=O)N2CCC3=Cc4c(cnn4-c4ccc(F)cc4)C[C@]3(C(=O)c3ccccn3)C2)n1 [Example 11CH] is ___
Outgoing: < 0.5 nM

Incoming: For the compound O=C(c1nccs1)[C@]12Cc3cnn(-c4ccc(F)cc4)c3C=C1CCN(S(=O)(=O)c1ccc(N3CCCC3)cc1)C2 [Example 6] , what Ki is on record?
Outgoing: 0.5 to 1 nM

Incoming: What value of Ki has been recorded for this entry: O=C(c1nccs1)[C@]12Cc3cnn(-c4ccc(F)cc4)c3C=C1CCN(S(=O)(=O)c1ccc(N3CC[C@@H](F)C3)nc1)C2 [Example 9]
Outgoing: < 0.5 nM

Incoming: Which Ki is reported for this compound? Cc1cnc(C(=O)[C@]23Cc4cnn(-c5ccc(F)cc5)c4C=C2CCN(S(=O)(=O)c2cccc(C(F)(F)F)c2)C3)s1 [Example 12L]
Outgoing: < 0.5 nM

Incoming: Quick check: Ki of Cn1nccc1S(=O)(=O)N1CCC2=Cc3c(cnn3-c3ccc(F)cc3)C[C@]2(C(=O)c2cc(C(F)(F)F)ccn2)C1 [Example 11BM] ?
Outgoing: < 0.5 nM

Incoming: Please give the measured Ki for this compound: N#Cc1ccc(CS(=O)(=O)N2CCC3=Cc4c(cnn4-c4ccc(F)cc4)C[C@]3(C(=O)c3nccs3)C2)cc1 [Example 5B]
Outgoing: < 0.5 nM

====

A collection of compounds and their measured Ki
Tested on: induction of TAT by dexamethasone in HepG2 cells
Assay: HepG2 tyrosine aminotransferase (TAT) assay
Type: cell-based, human
Settings: HepG2 cells, challenge of 100 nM dexamethasone; Ki from IC50 by Cheng and Prusoff equation
Protocol: Example 21. HepG2 Tyrosine Aminotransferase (TAT) Assay Glucocorticoid mediated activation of TAT occurs by transactivation of glucocorticoid response elements in the TAT promoter by glucocorticoid receptor agonist complex. TAT activity was measured as outlined in the literature by A. Ali et al., J. Med. Chem., 2004, 47, 2441-2452. HepG2 cells were cultured using MEME media supplemented with 10% (v/v) foetal bovine serum; 2 mM L-glutamine and 1% (v/v) NEAA at 37° C., 5%/95% (v/v) CO2/air. […]

CCCn1ncc(S(=O)(=O)N2CCC3=Cc4c(cnn4-c4ccc(F)cc4)C[C@]3(C(=O)c3nccs3)C2)n1 (single isomer, unassigned) [Example 12AA]	20 to 100 nM
Cc1ccnc(C(=O)[C@]23Cc4cnn(-c5ccc(F)cc5)c4C=C2CCN(S(=O)(=O)c2ccc(F)c(F)c2)C3)c1 [Example 11U]	< 20 nM
Cc1ccc(S(=O)(=O)N2CCC3=Cc4c(cnn4-c4ccc(F)cc4)C[C@]3(C(=O)c3ccccn3)C2)cc1F [Example 2J]	< 20 nM
CCn1cc(S(=O)(=O)N2CCC3=Cc4c(cnn4-c4ccc(F)cc4)C[C@]3(C(=O)c3nccs3)C2)cn1 [Example 12X]	20 to 100 nM
O=C(c1ccccn1)[C@]12Cc3cnn(-c4ccc(F)cc4)c3C=C1CCN(S(=O)(=O)c1cn[nH]c1)C2 [Example 11BS]	20 to 100 nM

Incoming: # Ki lookup, item Cn1cc(S(=O)(=O)N2CCC3=Cc4c(cnn4-c4ccc(F)cc4)C[C@]3(C(=O)c3ccccn3)C2)c(C(F)(F)F)n1 [Example 11BP]
Outgoing: ≥ 100 nM

Incoming: Query (compound): O=C(c1ccccn1)[C@]12Cc3cnn(-c4ccc(F)cc4)c3C=C1CCN(S(=O)(=O)c1ccc(Cl)cc1)C2 [Example 11A] ; field requested: Ki
Outgoing: < 20 nM

Incoming: Record request: Ki value, item Cn1cc(S(=O)(=O)N2CCC3=Cc4c(cnn4-c4ccc(F)cc4)C[C@]3(C(=O)c3cc(C(F)(F)F)ccn3)C2)nn1 [Example 11CG]
Outgoing: < 20 nM

Incoming: Quick check: Ki of Cc1cccc(S(=O)(=O)N2CCC3=Cc4c(cnn4-c4ccc(F)cc4)C[C@]3(C(=O)c3ccccn3)C2)n1 [Example 11O] ?
Outgoing: < 20 nM

Incoming: Which Ki is reported for this compound? CCCn1ncc(S(=O)(=O)N2CCC3=Cc4c(cnn4-c4ccc(F)cc4)C[C@]3(C(=O)c3cc(C(F)(F)F)ccn3)C2)n1 (single isomer, unassigned) [Example 11DC]
Outgoing: < 20 nM

These entries and their values trace back to patent US12226412B2.
